study_target: UniProt:P59533
Sequence (P59533 whole entry): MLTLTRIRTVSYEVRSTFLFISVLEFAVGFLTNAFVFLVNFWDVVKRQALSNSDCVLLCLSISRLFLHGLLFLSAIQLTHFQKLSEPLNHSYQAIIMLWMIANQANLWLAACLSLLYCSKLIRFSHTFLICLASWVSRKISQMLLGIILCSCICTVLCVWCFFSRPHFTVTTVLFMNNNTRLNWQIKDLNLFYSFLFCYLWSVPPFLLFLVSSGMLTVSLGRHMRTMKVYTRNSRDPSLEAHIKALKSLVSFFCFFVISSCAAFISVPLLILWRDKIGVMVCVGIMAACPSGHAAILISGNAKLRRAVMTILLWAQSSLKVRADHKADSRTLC
experiment_notes: Activity at human TAS2R38 expressed in HEK-293T-Galpha16-gustducin44 cells assessed as threshold concentration of compound at which point receptor detects compounds by measuring calcium response by FLIPR assay
Format: functional, cell-based
outcome_measure: Activity (µM)
Provide only the numeric value, understood in µM.

Before answering, review these 3 worked examples.
[
  {
    "compound_structure_string": "CC/N=C(/N)S",
    "Activity / µM": 30
  },
  {
    "compound_structure_string": "CCCc1cc(=O)[nH]c(=S)[nH]1",
    "Activity / µM": 0.3
  },
  {
    "compound_structure_string": "O=c1cc(-c2ccccc2)[nH]c(=S)[nH]1",
    "Activity / µM": 0.15
  }
]

Ask: What value of measured Activity is listed for CC(=S)Nc1ccccc1 ?
Result: 3

Ask: Also CNC(N)=S , if possible.
Result: 100

Ask: Also CC(=N)S , if possible.
Result: 100

Ask: Also S=C1NCCN1 , if possible.
Result: 10

Ask: Also CC(=O)NC(N)=S , if possible.
Result: 2

Ask: Also O=c1cc[nH]c(=S)[nH]1 , if possible.
Result: 300

Ask: Also CN(C)C=S , if possible.
Result: 10

Ask: Also NC(=S)Nc1ccccc1 , if possible.
Result: 0.3
